target entity: Adenosine receptor A1 (Homo sapiens) (UniProt P30542)
Sequence (P30542 whole entry): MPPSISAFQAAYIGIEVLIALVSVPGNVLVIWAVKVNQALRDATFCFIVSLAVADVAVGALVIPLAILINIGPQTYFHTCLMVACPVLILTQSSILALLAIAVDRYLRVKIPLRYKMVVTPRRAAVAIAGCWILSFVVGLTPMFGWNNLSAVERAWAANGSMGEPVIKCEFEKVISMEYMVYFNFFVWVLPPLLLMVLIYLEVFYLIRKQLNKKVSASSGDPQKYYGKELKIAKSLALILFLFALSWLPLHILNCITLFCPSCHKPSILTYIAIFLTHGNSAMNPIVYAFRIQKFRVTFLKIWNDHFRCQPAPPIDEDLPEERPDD
assay explanation: Percent change in cAMP content of CHO (Chinese hamster ovary) cells expressing human Adenosine A1 receptor at 0.01 uM
Assay type: functional, cell-based
measurement kind: Change (%)

• Cc1sc(N)c(C(=O)c2cc(C)c3cc(Cl)ccc3c2)c1C = -0

I = COc1ccc(C(=O)c2c(N)sc3c2CCCC3)c2ccccc12
II = Nc1sc2c(c1C(=O)c1ccc3ccccc3c1)CCC(c1ccccc1)C2 (stereo not given)
III = Cc1ccc(C(=O)c2c(N)sc3c2CCN(Cc2ccccc2)C3)c2ccccc12
IV = Nc1sc2ccccc2c1C(=O)c1cccc2ccccc12
Q: Please rank these compounds by Change in descending order. List the labels according to the requested ordering.
Result: IV, I, III, II

// provenance: ChEMBL document CHEMBL1145774
